Hi there, I'd appreciate the recorded self-cleavage for every entry that follows.
B1: LINE1-full (parent)
chain: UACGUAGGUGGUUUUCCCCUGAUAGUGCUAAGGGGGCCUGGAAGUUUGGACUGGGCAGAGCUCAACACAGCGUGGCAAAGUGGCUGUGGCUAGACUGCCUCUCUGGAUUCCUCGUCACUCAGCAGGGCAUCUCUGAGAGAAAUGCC

# Variants of: B1
# protocol text: self-cleavage, relative activity (ratio to wild type); higher = more cleavage; in vitro, sequencing; the parent is a self-cleaving ribozyme
The answer should be written as a number, with no unit following it.

Input: If you can, please state the reported self-cleavage value of U47C A78U .
Output: 1.89

Input: One more variant: A22G A78U
Output: 1.85

Input: One more variant: A69G C118U
Output: 0.2

Input: One more variant: C66U A141G
Output: 0.03

Input: One more variant: U47A G125C
Output: 1.49

Input: One more variant: A43U U73A
Output: 0.93

Input: One more variant: U39A U119C
Output: 1.44

Input: One more variant: A2U U52C
Output: 0.67

Input: One more variant: A117G A121C
Output: 1.78

Input: One more variant: U1C A117U
Output: 0.89

Input: One more variant: A121U A129U
Output: 1.41

Input: One more variant: A121U A138G
Output: 1.56

Input: One more variant: U20C A92U
Output: 0.72

Input: One more variant: A50G U73A
Output: 0.78

Input: One more variant: U87C G126U
Output: 0.3

Input: One more variant: A59G U102C
Output: 0.1

Input: One more variant: A121C
Output: 1.51

Input: One more variant: C3U A57U
Output: 0.17

Input: One more variant: U109A C131A
Output: 1.59

Input: One more variant: C113G G125U
Output: 1.66

Input: One more variant: G72A U87A
Output: 0.07

Input: One more variant: G8U C37U
Output: 1.51

Input: One more variant: U26C C63U
Output: 0.66

Input: One more variant: A42U A138G
Output: 1.28

Input: One more variant: G8A A121G
Output: 0.54

Input: One more variant: A42G C145U
Output: 1.26
